Hi there, I'd appreciate the recorded % inhibition at 1.9 nM for every entry that follows.
- SUBJECT OF TEST: T1, full length human DLL4 (human, UniProt Q9NR61 27-685)
- T1 construct: whole, on cells; also called native DLL4 expressed in HEK293 cells
- ASSAY PROCEDURE: FMAT competition, purified antibody vs Alexa-647 human Notch1/Fc, 293T cells with human DLL4
- Experimental: To discriminate between the purified antibodies based upon their ability to prevent the interaction between full-length recombinant DLL4 and soluble Notch1/Fc, the following assays were performed. […] After a further 3 h incubation at 4° C., the amount of bound Notch1/Fc was determined by reading the fluorescence in each well using an FMAT 8200 instrument (Applied Biosystems).
Answers are plain numbers, in %.

Required: % inhibition at 1.9 nM, one value per binder below.
1. 21H3 (antibody, IgG4, V domains shown, Fully human; used for IgG4 rows and where no isotype is printed; also called 21H3 IgG4) VH: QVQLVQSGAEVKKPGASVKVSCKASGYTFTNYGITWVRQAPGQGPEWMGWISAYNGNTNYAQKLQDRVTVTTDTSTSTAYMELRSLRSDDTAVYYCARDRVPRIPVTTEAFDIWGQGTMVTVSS VL: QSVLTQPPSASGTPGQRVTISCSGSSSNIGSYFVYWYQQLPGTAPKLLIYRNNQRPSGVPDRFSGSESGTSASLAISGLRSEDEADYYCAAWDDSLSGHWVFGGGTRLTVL
2. 2H10 (antibody, IgG4, V domains shown, Fully human; used for IgG4 rows and where no isotype is printed; also called 2H10 IgG4) VH: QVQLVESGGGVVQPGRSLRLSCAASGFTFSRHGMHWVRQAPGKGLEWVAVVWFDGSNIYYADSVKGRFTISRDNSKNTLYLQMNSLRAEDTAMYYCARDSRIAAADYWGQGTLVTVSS VL: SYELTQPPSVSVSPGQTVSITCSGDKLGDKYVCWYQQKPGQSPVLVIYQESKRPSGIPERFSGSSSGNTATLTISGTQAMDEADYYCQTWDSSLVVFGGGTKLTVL
3. 4B3 (antibody, IgG4, V domains shown, Fully human; also used where no isotype is printed) VH: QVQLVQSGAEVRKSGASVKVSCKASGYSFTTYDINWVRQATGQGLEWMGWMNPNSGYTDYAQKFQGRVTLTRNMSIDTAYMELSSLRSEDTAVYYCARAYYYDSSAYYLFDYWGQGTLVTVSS VL: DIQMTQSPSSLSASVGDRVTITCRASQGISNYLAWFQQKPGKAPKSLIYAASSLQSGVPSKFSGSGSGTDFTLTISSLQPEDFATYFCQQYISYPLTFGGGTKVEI

Solution:
68
45
40
